Biological target: human androgen receptor (Homo sapiens, UniProt P10275)
Construct: expressed in transfected cells; host or cells: HEK293
Assay: Reporter assay of an androgen receptor responsive sequence (luciferase, transiently transfected HEK293 cells)
Type: cell-based
Settings: 24 hours incubation, relative to activity of 100 nM DHT, read-out: AR transcriptive activity (pEC50) (converted)
parameter measured: EC50 (nM)

test smiles | unit annotation | EC50
Cc1sc(N(CCOc2ccccc2)c2ccc(C#N)cc2)nc1C(=O)NS(C)(=O)=O | nM | 1580
Cc1sc(N(Cc2cccc3ccsc23)c2ccc(C#N)cc2)nc1C(=O)NS(C)(=O)=O | nM | 50.1

[a] [2H]c1c([2H])c([2H])c(C([2H])([2H])N(c2ccc(C#N)cc2)c2nc(C(=O)NS(C)(=O)=O)c(C)s2)c([2H])c1[2H]
[b] Cc1sc(N(Cc2cccc(N3CCCC3)c2)c2ccc(C#N)cc2)nc1C(=O)NS(C)(=O)=O
[c] Cc1oc(N(CCc2ccc(C#N)cc2)Cc2ccc(F)cc2)nc1C(=O)NS(C)(=O)=O
[d] COCCCS(=O)(=O)NC(=O)c1nc(N(CCc2ccc(C#N)cc2)Cc2ccc(Cl)cc2)sc1C
Put the compounds in ascending order of EC50. Sort the labels as requested; that list is your answer.
a, d, c, b

---

Biological target: human androgen receptor (Homo sapiens)
Construct: expressed in transfected cells; host or cells: HEK293
Sequence (P10275 1-920): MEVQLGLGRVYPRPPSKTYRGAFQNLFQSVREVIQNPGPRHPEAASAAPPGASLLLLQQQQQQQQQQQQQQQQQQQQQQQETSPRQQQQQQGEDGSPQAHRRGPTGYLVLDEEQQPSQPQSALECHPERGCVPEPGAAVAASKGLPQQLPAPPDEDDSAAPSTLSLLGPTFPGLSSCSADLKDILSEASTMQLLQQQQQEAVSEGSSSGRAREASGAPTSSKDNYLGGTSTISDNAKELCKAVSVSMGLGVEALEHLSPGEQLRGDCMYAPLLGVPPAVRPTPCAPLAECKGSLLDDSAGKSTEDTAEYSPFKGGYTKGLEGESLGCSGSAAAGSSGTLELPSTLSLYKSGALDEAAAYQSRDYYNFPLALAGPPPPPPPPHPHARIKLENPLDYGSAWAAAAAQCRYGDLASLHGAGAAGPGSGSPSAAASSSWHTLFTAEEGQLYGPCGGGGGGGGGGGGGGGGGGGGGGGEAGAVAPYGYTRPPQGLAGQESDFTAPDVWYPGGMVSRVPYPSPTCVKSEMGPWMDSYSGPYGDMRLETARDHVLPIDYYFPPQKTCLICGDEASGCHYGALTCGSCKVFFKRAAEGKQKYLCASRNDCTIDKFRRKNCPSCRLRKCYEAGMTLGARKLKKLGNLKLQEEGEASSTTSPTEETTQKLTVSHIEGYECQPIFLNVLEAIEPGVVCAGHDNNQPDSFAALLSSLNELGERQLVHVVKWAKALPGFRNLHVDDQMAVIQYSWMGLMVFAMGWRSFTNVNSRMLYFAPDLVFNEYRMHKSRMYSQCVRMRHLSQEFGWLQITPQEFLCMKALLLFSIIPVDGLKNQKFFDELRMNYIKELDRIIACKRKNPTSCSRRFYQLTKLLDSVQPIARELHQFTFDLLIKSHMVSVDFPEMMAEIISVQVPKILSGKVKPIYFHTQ
Test: Reporter assay of an androgen receptor responsive sequence (luciferase, transiently transfected HEK293 cells)
Assay type: cell-based
Conditions: 24 hours incubation, relative to activity of 100 nM DHT, read-out: AR transcriptive activity (pEC50) (converted)
parameter measured: EC50 (µM)

Below are worked cases with known answers.
compound | unit annotation | EC50
Cc1sc(N(CCc2ccc(C#N)cc2)Cc2ccc(OC(F)(F)F)cc2)nc1C(=O)NS(C)(=O)=O | µM | 0.251
CCc1oc(N(Cc2ccc(Cl)cc2)c2ccc(C#N)cc2)nc1C(=O)NS(C)(=O)=O | µM | 0.158
CCc1oc(N(Cc2cc3ccccc3s2)c2ccc(C#N)cc2)nc1C(=O)NS(C)(=O)=O | µM | 0.0794
Cc1sc(N(CC2CCC3(CC2)CC3)c2ccc(C#N)cc2)nc1C(=O)NS(C)(=O)=O | µM | 1
Cc1sc(N(Cc2ccc(OC(F)(F)F)c(F)c2)c2ccc(C#N)cc2)nc1C(=O)NS(C)(=O)=O | µM | 0.158

[a] Cc1sc(N(Cc2ccc(OC(F)(F)F)cc2)c2ccc(C#N)cc2)nc1C(=O)NS(=O)(=O)CCCC#N
[b] Cc1sc(N(CCc2ccc(F)c(F)c2)Cc2ccccc2)nc1C(=O)NS(C)(=O)=O
[c] COc1c(F)c(CN(c2ccc(C#N)cc2)c2nc(C(=O)NS(C)(=O)=O)c(C)s2)c(F)c(F)c1C(F)(F)F
Could you please sort these 3 entries by EC50 from high to low? Sort the labels as requested; that list is your answer.
a, c, b
(a: 1 µM, c: 0.158 µM, b: 0.1 µM)

[1] Cc1sc(N(Cc2ccccc2)c2ccc(C#N)cc2)nc1C(=O)NS(=O)(=O)C1CC1
[2] Cc1oc(N(CCc2ccc(OC(F)(F)F)cc2)Cc2ccc(C(F)(F)F)nc2)nc1C(=O)NS(C)(=O)=O
[3] Cc1oc(N(CCc2ccccc2)c2ccc(C#N)cc2)nc1C(=O)NS(C)(=O)=O
[4] COCCCS(=O)(=O)NC(=O)c1nc(N(Cc2ccc(Cl)cc2OC(F)F)c2ccc(C#N)cc2)sc1C
Put the compounds in ascending order of EC50. Sort the labels as requested; that list is your answer.
2, 1, 4, 3

[1] CS(=O)(=O)NC(=O)c1csc(N(Cc2ccccc2)c2ccc(C#N)cc2)n1
[2] Cc1ccc(CN(c2ccc(C#N)cc2)c2nc(C(=O)NS(C)(=O)=O)c(C)s2)cc1
Higher EC50: 1 or 2 ? Returns: label corresponding to the selected item.
1
(1: 1 µM, 2: 0.0251 µM)

[A] Cc1sc(N(Cc2ccccc2)c2ccc(C#N)cc2)nc1C(=O)NS(=O)(=O)C(F)F
[B] Cc1sc(N(Cc2ccc(Br)cc2)c2ccc(C#N)cc2)nc1C(=O)NS(C)(=O)=O
Higher EC50: A or B ? Returns: label corresponding to the selected item.
A
